Tested on: Human peripheral blood mononuclear cells (PBMCs) as Responder cells, RPMI 1788 Stimulator cells
Method summary: Mixed Lymphocyte Reaction (MLR) test
Format: cell-based
Experimental conditions: Homo sapiens, RPMI-1788, lowest concentration giving 50% inhibition of the MLR; 6 days coculture, 3H-thymidine incorporation
Endpoint label: IC50

Answered examples (2):
# lookup: IC50 of Nc1nc(N2CCN(C(=O)CCc3ccc(Br)cc3)CC2)c2nc(CCc3ccc(F)cc3)sc2n1
> 10 µM

# lookup: IC50 of Nc1nc(N2CCN(CC(=O)N3CCCC3)CC2)c2nc(-c3ccc(F)cc3)[nH]c2n1
> 10 µM

Now examine the next entry.
# lookup: IC50 of Cc1cccc(NC(=O)N2CCN(c3nc(N)nc4sc(CCc5ccc(F)cc5)nc34)CC2)c1
> 10 µM

----------
In this section we review reported pIC50 values for a set of molecules.
Tested on: Human peripheral blood mononuclear cells (PBMCs) as Responder cells, RPMI 1788 Stimulator cells
Method summary: Mixed Lymphocyte Reaction (MLR) test
Type: cell-based
Experimental conditions: Homo sapiens, RPMI-1788, lowest concentration giving 50% inhibition of the MLR; 6 days coculture, 3H-thymidine incorporation
pIC50: −log10 of the molar value.

# lookup: pIC50 of Nc1nc(N2CCN(C(=O)c3cccnc3)CC2)c2cc(-c3ccc(F)cc3)sc2n1 [Example 346]
< 5.00

Others:
# lookup: pIC50 of Nc1nc(N2CCCN(C(=O)c3ccc(Cl)cc3)CC2)c2cc(-c3ccccc3)sc2n1 [Example 335]
< 5.00

# lookup: pIC50 of CN(C(=O)CN1CCN(c2nc(N)nc3oc(CCc4ccc(F)cc4)nc23)CC1)c1ccccc1 [Example 198]
< 5.00

# lookup: pIC50 of COC(=O)c1ccc(OCC(=O)N2CCN(c3nc(N)nc4sc(CCc5ccc(F)cc5)nc34)CC2)cc1 [Example 225]
< 5.00

----------
Tested on: Human peripheral blood mononuclear cells (PBMCs) as Responder cells, RPMI 1788 Stimulator cells
Method summary: Mixed Lymphocyte Reaction (MLR) test
Type: cell-based
Experimental conditions: Homo sapiens, RPMI-1788, lowest concentration giving 50% inhibition of the MLR; 6 days coculture, 3H-thymidine incorporation
Description: Human peripheral blood mononuclear cells (PBMCs) were isolated from buffy coats, obtained from healthy blood donors by Ficoll (Lymphoprep, Axis-Shield PoC AS, Oslo, Norway) density-gradient centrifugation. The cells at the Ficoll-plasma interface were washed three times and used as “Responder” cells. […] After 5 days, cells were pulsed with 1 μCi of methyl-^3H thymidine (MP Biomedicals, USA), harvested 18 h later on glass filter paper and counted. […]
Lab note: anything with IC50 below 900 nM is marked Condition met; values at 900 nM or higher are marked Condition not met.

Examples from the recorded data:
In plain terms, does COCCOc1nc(N)nc2sc(-c3ccc(F)cc3)nc12 come in under 900 nM for IC50?
Condition not met

In plain terms, does Nc1nc(N2CCN(CC(=O)NCCc3ccccc3)CC2)c2nc(CCc3ccc(F)cc3)sc2n1 come in under 900 nM for IC50?
Condition not met

In plain terms, does Cc1ccc(-c2nc3c(N4CCN(C(=O)COc5ccc(Cl)cc5)CC4)nc(N)nc3[nH]2)cc1 come in under 900 nM for IC50?
Condition met

In plain terms, does Nc1nc(N2CCN(C(=O)COc3ccc(Cl)cc3)CC2)c2nc(-c3ccc(F)cc3)sc2n1 come in under 900 nM for IC50?
Condition met

In plain terms, does CCCCCc1nc2c(N3CCN(C(=O)COc4ccc(OC)cc4)CC3)nc(N)nc2s1 come in under 900 nM for IC50?
Condition not met

Others:
In plain terms, does CCCSc1nc2c(N3CCN(C(=O)COc4ccc(Cl)cc4)CC3)nc(N)nc2[nH]1 come in under 900 nM for IC50?
Condition not met

In plain terms, does Cc1cccc(N2CCN(c3nc(N)nc4sc(-c5ccc(F)cc5)nc34)CC2)c1 come in under 900 nM for IC50?
Condition not met

In plain terms, does Nc1nc(N2CCN(C(=O)COc3ccc(Br)cc3)CC2)c2cc(-c3ccccc3)sc2n1 come in under 900 nM for IC50?
Condition met

In plain terms, does COc1cccc(-c2nc3c(N4CCN(C(=O)COc5ccc(Cl)cc5)CC4)nc(N)nc3s2)c1 come in under 900 nM for IC50?
Condition met

In plain terms, does COc1ccc(OCC(=O)N2CCN(c3nc(N)nc4sc(CCCc5ccc(F)cc5)nc34)CC2)cc1 come in under 900 nM for IC50?
Condition not met

In plain terms, does Nc1nc(N2CCN(C(=O)c3cccc4ccccc34)CC2)c2nc(-c3ccc(F)cc3)[nH]c2n1 come in under 900 nM for IC50?
Condition not met

----------
Test system: Human peripheral blood mononuclear cells (PBMCs) as Responder cells, RPMI 1788 Stimulator cells
Method summary: Mixed Lymphocyte Reaction (MLR) test
Type: cell-based
Experimental conditions: Homo sapiens, RPMI-1788, lowest concentration giving 50% inhibition of the MLR; 6 days coculture, 3H-thymidine incorporation
Description: Human peripheral blood mononuclear cells (PBMCs) were isolated from buffy coats, obtained from healthy blood donors by Ficoll (Lymphoprep, Axis-Shield PoC AS, Oslo, Norway) density-gradient centrifugation. The cells at the Ficoll-plasma interface were washed three times and used as “Responder” cells. […] After 5 days, cells were pulsed with 1 μCi of methyl-^3H thymidine (MP Biomedicals, USA), harvested 18 h later on glass filter paper and counted. […]
In this section we review reported IC50 values for a set of compounds.

Answered examples (2):
# lookup: IC50 of Nc1nc(N2CCN(C(=O)c3ccc(Cl)cc3)CC2)c2nc(CCc3cccs3)sc2n1
> 10 µM

# lookup: IC50 of Nc1nc(N2CCN(C(=O)CCc3ccccc3)CC2)c2nc(CCc3ccc(F)cc3)sc2n1
> 10 µM

Now examine the next entry.
# lookup: IC50 of Nc1nc(N2CCN(C(=O)COc3ccc(Cl)cc3)CC2)c2nc(-c3ccc(OC(F)(F)F)cc3)[nH]c2n1
> 10 µM

----------
System: Human peripheral blood mononuclear cells (PBMCs) as Responder cells, RPMI 1788 Stimulator cells
Method summary: Mixed Lymphocyte Reaction (MLR) test
Assay type: cell-based
Experimental conditions: Homo sapiens, RPMI-1788, lowest concentration giving 50% inhibition of the MLR; 6 days coculture, 3H-thymidine incorporation
Endpoint label: IC50

Answered examples (2):
# lookup: IC50 of Nc1nc(N2CCN(C(=O)c3ccc(Cl)cc3)CC2)c2nc(CCc3ccc(F)cc3)sc2n1
> 10 µM

# lookup: IC50 of CC(C)(Oc1ccc(Cl)cc1)C(=O)N1CCN(c2nc(N)nc3sc(-c4ccc(F)cc4)nc23)CC1
> 10 µM

Others:
# lookup: IC50 of Nc1nc(N2CCN(C(=O)c3ccc(Cl)cc3)CC2)c2nc(-c3ccc(F)cc3)[nH]c2n1
> 10 µM

----------
In this section we review reported IC50 values for a set of compounds.
Test system: Human peripheral blood mononuclear cells (PBMCs) as Responder cells, RPMI 1788 Stimulator cells
Method summary: Mixed Lymphocyte Reaction (MLR) test
Type: cell-based
Experimental conditions: Homo sapiens, RPMI-1788, lowest concentration giving 50% inhibition of the MLR; 6 days coculture, 3H-thymidine incorporation
Report the figure in µM without appending any unit label.

# lookup: IC50 of Nc1nc(N2CCN(C(=O)COc3ccc(Cl)cc3)CC2)c2nc(SC3CCCC3)[nH]c2n1
0.51

# lookup: IC50 of Nc1nc(N2CCN(c3ccc(Cl)cc3)CC2)c2nc(-c3ccc(F)cc3)[nH]c2n1
3.87

# lookup: IC50 of Nc1nc(N2CCN(CC(=O)N3CCOCC3)CC2)c2nc(-c3ccc(F)cc3)sc2n1
4.8

# lookup: IC50 of CCCCCc1nc2c(N3CCN(C(=O)COc4ccc(Cl)cc4)CC3)nc(N)nc2s1
0.69

# lookup: IC50 of Nc1nc(N2CCC(C(=O)c3ccccc3)CC2)c2nc(CCc3ccc(F)cc3)sc2n1
2.61

# lookup: IC50 of Nc1nc(N2CCN(C(=O)COc3ccc(Br)cc3)CC2)c2nc(Cc3ccc(F)cc3)sc2n1
0.55

# lookup: IC50 of Nc1nc(N2CCN(C(=O)COc3ccc(Cl)cc3)CC2)c2nc(-c3ccc(Cl)c(Cl)c3)sc2n1
5.29

# lookup: IC50 of Nc1nc(N2CCN(C(=O)COc3ccc(Cl)cc3)CC2)c2nc(CCCCc3ccc(F)cc3)sc2n1
0.92

Now examine the next entry.
# lookup: IC50 of COCc1nc2c(N3CCN(C(=O)COc4ccc(Cl)cc4)CC3)nc(N)nc2o1
1.83

----------
Tested on: Human peripheral blood mononuclear cells (PBMCs) as Responder cells, RPMI 1788 Stimulator cells
Method summary: Mixed Lymphocyte Reaction (MLR) test
Type: cell-based
Experimental conditions: Homo sapiens, RPMI-1788, lowest concentration giving 50% inhibition of the MLR; 6 days coculture, 3H-thymidine incorporation
pIC50: −log10 of the molar value.
In this section we review reported pIC50 values for a set of molecules.

Answered examples (2):
# lookup: pIC50 of COc1cccc(C(=O)N2CCN(c3nc(N)nc4[nH]c(-c5ccc(F)cc5)nc34)CC2)c1
< 5.00

# lookup: pIC50 of Nc1nc(N2CCOCC2)c2nc(Cc3ccc(F)cc3)sc2n1
< 5.00

Others:
# lookup: pIC50 of Nc1nc(N2CCN(C(=O)Cc3ccc(Cl)cc3)CC2)c2nc(CCc3cccs3)sc2n1
< 5.00
